Test system: Saccharomyces cerevisiae BY4741 SeMeCo community
measurement_notes: z-score of subpopulation abundance vs DMSO median, subpopulation auxotrophic for L; higher = larger share of this subpopulation than in DMSO controls
experimental_parameters: 10 µM; 24 h; SM minimal medium; subpopulation (auxotrophy): L
Where a name gives a salt, the structure may show the parent alone.
Below is a list of entries, each paired with its recorded z-score of subpopulation abundance value.
Field format: numeric only.

Below, each entry is followed by its recorded z-score of subpopulation abundance result.
>>> reported_measurement("CN1CCN(CCCN2c3ccccc3Sc3ccc(Cl)cc32)CC1 [Prochlorperazine dimaleate salt]")
0.41
>>> reported_measurement("Nc1ccc(S(=O)(=O)Nc2ccnn2-c2ccccc2)cc1")
0.58
>>> reported_measurement("CC[C@@H]1C(=O)OC[C@@H]1Cc1cncn1C [Pilocarpine HCl]")
0.16
>>> reported_measurement("CC(C)c1nc(N(C)S(C)(=O)=O)nc(-c2ccc(F)cc2)c1/C=C/[C@@H](O)C[C@@H](O)CC(=O)O [Rosuvastatin Calcium]")
0.29
>>> reported_measurement("OC1(c2ccc(Cl)c(C(F)(F)F)c2)CCN(CCCC(c2ccc(F)cc2)c2ccc(F)cc2)CC1")
0.81
>>> reported_measurement("C=C[C@]1(C)C[C@@H](OC(=O)CSC(C)(C)CNC(=O)[C@H](N)C(C)C)[C@]2(C)[C@H](C)CC[C@]3(CCC(=O)[C@H]32)[C@@H](C)[C@@H]1O [Valnemulin HCl]")
0.38
>>> reported_measurement("CNCc1cc(-c2ccccc2F)n(S(=O)(=O)c2cccnc2)c1 [Vonoprazan Fumarate (TAK-438)]")
-1.45
>>> reported_measurement("CO/N=C(\\C(=O)N[C@@H]1C(=O)N2C(C(=O)OC(C)OC(C)=O)=C(COC(N)=O)CS[C@H]12)c1ccco1 (some centres undefined)")
-0.95
>>> reported_measurement("CC(=O)N1CCN(c2ccc(OCC3COC(Cn4ccnc4)(c4ccc(Cl)cc4Cl)O3)cc2)CC1 (centres undefined)")
-0.63
>>> reported_measurement("CC(C)(C)CC(C)(C)c1ccc(OCCOCC[N+](C)(C)Cc2ccccc2)cc1 [Benzethonium Chloride]")
-0.55

Query: Request - read-out z-score of subpopulation abundance | tested on Saccharomyces cerevisiae BY4741 SeMeCo community | molecule OCCN1CCN(CC/C=C2/c3ccccc3Sc3ccc(C(F)(F)F)cc32)CC1 [Flupenthixol dihydrochloride]
Reply: 1.34
